# Tested on: HCT116/54C cells
# MEASUREMENT DESCRIPTION: In vitro cytotoxicity, 4 h exposure oxic/anoxic, 5-day regrowth, sulforhodamine B
# Format: cell-based, human
# RUN PARAMETERS: Homo sapiens, HCT116/54C, 4 h, read-out: IC50 Oxic
ASSAY ENDPOINT: IC50

## Task Look up IC50: COCC(O)Cn1ccnc1[N+](=O)[O-] (stereo not shown) [Compound 1, misonidazole, reference compound]
## Result > 25 mM

---

# Tested on: HCT116/54C cells
# MEASUREMENT DESCRIPTION: In vitro cytotoxicity, 4 h exposure oxic/anoxic, 5-day regrowth, sulforhodamine B
# Type: cell-based, human
# RUN PARAMETERS: HCT116/54C, IC50(oxic)/IC50(anoxic)
Class rule met: HCR at least 3. Class rule not met: HCR below 3.

## Task Test whether the compound `Cc1ncc([N+](=O)[O-])n1CCS(=O)(=O)NCCN1CCOCC1` records HCR of 3 or higher.
## Result rule not met

## Task Test whether the compound `O=[N+]([O-])c1nccn1CCS(=O)(=O)NCCN1CCOCC1` records HCR of 3 or higher.
## Result rule met

## Task Test whether the compound `O=[N+]([O-])c1nccn1CS(=O)(=O)NCCN1CCOCC1` records HCR of 3 or higher.
## Result rule met

## Task Test whether the compound `COCCNS(=O)(=O)Cn1cncc1[N+](=O)[O-]` records HCR of 3 or higher.
## Result rule not met

## Task Test whether the compound `Cc1ncc([N+](=O)[O-])n1CCS(=O)(=O)NCCN1CCCCC1` records HCR of 3 or higher.
## Result rule met

## Task Test whether the compound `Cc1ncc([N+](=O)[O-])n1CCS(=O)(=O)N1CCC(N(C)C)CC1` records HCR of 3 or higher.
## Result rule met

## Task Test whether the compound `O=[N+]([O-])c1cncn1CCS(=O)(=O)NCCN1CCOCC1` records HCR of 3 or higher.
## Result rule not met

## Task Test whether the compound `Cc1ncc([N+](=O)[O-])n1CCS(=O)(=O)N1CCN(C)CC1` records HCR of 3 or higher.
## Result rule not met

## Task Test whether the compound COCC(O)Cn1ccnc1[N+](=O)[O-] (centres unmarked) [Compound 1, misonidazole, reference compound] records HCR of 3 or higher.
## Result rule met

## Task Test whether the compound `COCCNS(=O)(=O)CCn1ccnc1[N+](=O)[O-]` records HCR of 3 or higher.
## Result rule met

## Task Test whether the compound `COCCNS(=O)(=O)Cn1ccnc1[N+](=O)[O-]` records HCR of 3 or higher.
## Result rule met

## Task Test whether the compound `O=[N+]([O-])c1nccn1CCNS(=O)(=O)CCO` records HCR of 3 or higher.
## Result rule met

## Task Test whether the compound `O=[N+]([O-])c1cncn1CS(=O)(=O)NCCO` records HCR of 3 or higher.
## Result rule met

## Task Test whether the compound `O=[N+]([O-])c1nccn1CS(=O)(=O)NCCO` records HCR of 3 or higher.
## Result rule met

## Task Test whether the compound O=[N+]([O-])c1nccn1CS(=O)(=O)NCC(O)CO (centres unmarked) records HCR of 3 or higher.
## Result rule met

## Task Test whether the compound `O=[N+]([O-])c1cncn1CS(=O)(=O)NCCN1CCOCC1` records HCR of 3 or higher.
## Result rule met
